Hello, the source for this data is patent US7449463B2, in case you need it.

# System: Respiratory Syncytial Virus
# test-name: microbe, parasite or virus in culture
# Assay type: cell-based
# test-conditions: human respiratory syncytial virus, 168 h; RSV-infected HeLa cells, MTT readout seven days after infection; −log of EC50 in molar units
test-readout: pEC50
By convention, pEC50 is the negative base-10 log of a molar concentration.

Query: What pEC50 value was documented for this compound, Cc1cc(C)cc(N(CCCC(N)=O)Cc2ccc3nc(NCCCN4CCOCC4)n(Cc4nc(C)ccc4O)c3c2)c1 ?
Reply: 9.60

Query: Look at this compound and give its reported pEC50. Cc1ccc(O)c(Cn2c(NCCCN3CCOCC3)nc3ccc(CNc4c(C)cc(CCC#N)cc4C)cc32)n1
Reply: 7.40

Query: Quick one: pEC50 for CCOC(=O)CCCN(Cc1ccc2nc(NCCCN3CCOCC3)n(Cc3nc(C)ccc3O)c2c1)c1cc(C)cc(C)c1 ?
Reply: 8.60

Query: Quick one: pEC50 of Cc1ccc(O)c(Cn2c(NC3CCNC(CCN4CCOCC4)C3)nc3ccc(C=Cc4ccccc4)cc32)n1 (centres unmarked) ?
Reply: 6.20

Query: Form field: reported pEC50 of Cc1cc(C)cc(NCc2ccc3nc(NCC(O)CN4CCOCC4)n(Cc4nc(C)ccc4O)c3c2)c1 (centres unmarked)
Reply: 8.60

* * *

Entries annotated with measured melting point
Dear colleague, please return just the value in °C, with no unit written.

Illustrative cases are given below, each with its answer.
INSERT INTO assay_data (compound, recorded_measurement) VALUES
  ('Cc1ccc(I)c(NCc2ccc3nc(NCCCN4CCOCC4)n(Cc4nc(C)ccc4O)c3c2)c1', 225),
  ('Cc1ccc2c(c1)N(Cc1ccc3nc(NCCCN4CCOCC4)n(Cc4nc(C)ccc4O)c3c1)CC2', 212),
  ('Cc1ccc(O)c(Cn2c(NC3CCNC(CCN4CCOCC4)C3)nc3ccc(CCc4ccccc4)cc32)n1 (stereo not shown)', 159);

Query compound follows.
Query: Item under review: Cc1cc(C)c2nc(NCCCN3CCOCC3)n(Cc3nc(C)ccc3O)c2c1 . Reported melting point?
Reply: 228

* * *

# Tested on: Respiratory Syncytial Virus
# test-name: microbe, parasite or virus in culture
# Assay type: cell-based
# test-conditions: human respiratory syncytial virus, 168 h; RSV-infected HeLa cells, MTT readout seven days after infection; −log of EC50 in molar units
# From the text: In vitro Screening for Activity against Respiratory Syncytial Virus. The percent protection against cytopathology caused by viruses (antiviral activity or EC50) achieved by tested compounds and their cytotoxicity (CC50) are both calculated from dose-response curves. The selectivity of the antiviral effect is represented by the selectivity index (SI), calculated by dividing the CC50 (cytotoxic dose for 50% of the cells) by the EC50 (antiviral activity for 50% of the cells). […]
Measured pEC50, listed per entry.
Entry type: numeric. Quantity: pEC50, the -log10 of concentration in molar units.

# count of solved cases: 3
INSERT INTO measurements (molecule, recorded_measurement) VALUES
  ('Cc1ccc(S(=O)(=O)CCO)c(NCc2ccc3nc(NCCCN4CCOCC4)n(Cc4nc(C)ccc4O)c3c2)c1', 9.60),
  ('Cc1cc(C)cc(N(CCO)Cc2ccc3nc(NCCCN4CCOCC4)n(Cc4nc(C)ccc4O)c3c2)c1', 9.40),
  ('Cc1cc(C)cc(NCc2ccc3nc(NCCCN4CCOCC4)n(Cc4nc(C)ccc4O)c3c2)c1', 9.00);

// moving on: another record for pEC50
Query: Return reported pEC50; argument: Cc1cc(C)cc(NCc2ccc3nc(NC4CCNC(CCN5CCOCC5)C4)n(Cc4nc(C)ccc4O)c3c2)c1 (stereo not shown)
Reply: 7.90

* * *

Form field: Activity (one value per entry).
# Test system: Respiratory Syncytial Virus
# test-name: microbe, parasite or virus in culture
# Format: cell-based
# test-conditions: pEC50 (−log of EC50 when expressed in molar units), protection against RSV cytopathology
I'd appreciate a reply containing only the number, no unit.

INSERT INTO measurements (compound, recorded_measurement) VALUES
  ('Cc1cc(C)cc(N(CCO)Cc2ccc3nc(NCCCN4CCOCC4)n(Cc4cccc(Br)n4)c3c2)c1.Cl', 7.1);

Query: Data request, read-out Activity, for COc1ccc(C)nc1Cn1c(NCCCN2CCOCC2)nc2ccc(CNc3ccccc3CO)cc21
Reply: 7.1

Query: Which value of Activity has been reported for Cc1cccc(NCc2ccc3c(c2)nc(NCCCN2CCOCC2)n3C2CCCc3nc(C)c(C)nc32)c1CCO (stereo not drawn) in the records?
Reply: 7

* * *

# Tested on: Respiratory Syncytial Virus
# test-name: microbe, parasite or virus in culture
# Format: cell-based
# test-conditions: pEC50 (−log of EC50 when expressed in molar units), protection against RSV cytopathology
# Description: In vitro Screening for Activity against Respiratory Syncytial Virus. The percent protection against cytopathology caused by viruses (antiviral activity or EC50) achieved by tested compounds and their cytotoxicity (CC50) are both calculated from dose-response curves. The selectivity of the antiviral effect is represented by the selectivity index (SI), calculated by dividing the CC50 (cytotoxic dose for 50% of the cells) by the EC50 (antiviral activity for 50% of the cells). […]
test-readout: Activity
When you answer, write just the number.

Some entries whose results are on file:
INSERT INTO results (compound, recorded_measurement) VALUES
  ('COc1ccc(C)nc1Cn1c(NCCCN2CCOCC2)nc2ccc(CNc3cccc(C)c3CO)cc21 [Compound 298]', 6.9),
  ('Cc1ccc(CCCO)c(NCc2ccc3c(c2)nc(NCCCN2CCOCC2)n3Cc2ncccc2O)c1 [Compound 301]', 6.8);

From here, focus on the item given below.
Query: What value of measured Activity is listed for Cc1ccc(CCCO)c(NCc2ccc3nc(NCCCN4CCOCC4)n(Cc4cccc(C)n4)c3c2)c1 [Compound 274] ?
Reply: 7.2

* * *

# Test system: Respiratory Syncytial Virus
# test-name: microbe, parasite or virus in culture
# Assay type: cell-based
# test-conditions: pEC50 (−log of EC50 when expressed in molar units), protection against RSV cytopathology
test-readout: Activity
Just the number.

Query: Which measured Activity value corresponds to Cn1cnc2c(Cn3c(NCCCN4CCOCC4)nc4ccc(CNc5ccccc5C(N)=O)cc43)cccc21 [Compound 288] ?
Reply: 7

Query: So what does the record say about Activity for Cc1cccc(NCc2ccc3nc(NCCCN4CCOCC4)n(Cc4nc(C)c(C)nc4C)c3c2)c1CCO [Compound 282] ?
Reply: 7.1

Query: What value of measured Activity is listed for Cc1ccc(NCc2ccc3nc(NCCCN4CCOCC4)n(Cc4nc(C)c(C)nc4C)c3c2)c(CO)c1 [Compound 284] ?
Reply: 7.1
